Experiment description: brain penetrability after single oral administration
Format: in vivo, male nude mice
Recorded conditions: male, nude, mouse, plasma; 0.5 hr after single oral 50 mg/kg; read-out: Plasma Concentration
Measure name: concentration at 0.5 h (ng/mL)
# output: bare number, implied unit ng/mL

So what's the measured concentration at 0.5 h for this one? "C=CC(=O)N1C[C@H](n2c(C#CC3CC3)c(C(=O)N[C@H](C)c3ccccc3)c3c(N)ncnc32)C[C@@H]1C"
8720

----------
Test system: human P-gp (Homo sapiens)
Construct: expressed in transfected cells; host or cells: LLC-PK1 (porcine kidney) cells expressing human P-gp; mock/LLC-PK1 as control
Experiment description: inhibitory effect on human P-gp, bidirectional transport of [^3H]digoxin
Type: in vitro ADME
Recorded conditions: human
Measure name: activity at 3 h, 1 μmol/L (%)
# output: bare number, implied unit %

So what's the measured activity at 3 h, 1 μmol/L for this one? "C=CC(=O)N1C[C@H](n2c(C#CC3CC3)c(C(=O)N[C@H](C)c3ccccc3)c3c(N)ncnc32)C[C@@H]1C"
135

----------
Experiment description: brain penetrability after single oral administration
Type: in vivo, male nude mice
Recorded conditions: male, nude, mouse, brain and plasma (unbound); 0.5 hr after single oral 50 mg/kg
Procedure: Brain penetrability of Compound (1) in nude mice. The brain penetrability of Compound (1) was confirmed by Kp,brain values at 0.5 and 1 hour in male nude mice following a single oral administration at 50 mg/kg (Table 6). Based on the brain penetrability study and brain and plasma protein binding studies, Kp,uu,brain was calculated to be 0.26±0.05 for 0.5 hour and 0.13±0.03 for 1 hour.
Measure name: Kp uu at 0.5 h

So what's the measured Kp uu at 0.5 h for this one? "C=CC(=O)N1C[C@H](n2c(C#CC3CC3)c(C(=O)N[C@H](C)c3ccccc3)c3c(N)ncnc32)C[C@@H]1C"
0.26

----------
Experiment description: plasma protein binding, equilibrium dialysis
Type: in vitro ADME
Recorded conditions: dog, dogs, 0.2, 2, and 20 μmol/L
Measure name: fraction unbound

So what's the measured fraction unbound for this one? "C=CC(=O)N1C[C@H](n2c(C#CC3CC3)c(C(=O)N[C@H](C)c3ccccc3)c3c(N)ncnc32)C[C@@H]1C"
0.02 to 0.026

----------
Test system: human BCRP (Homo sapiens, UniProt Q9UNQ0)
Sequence (Q9UNQ0 whole entry): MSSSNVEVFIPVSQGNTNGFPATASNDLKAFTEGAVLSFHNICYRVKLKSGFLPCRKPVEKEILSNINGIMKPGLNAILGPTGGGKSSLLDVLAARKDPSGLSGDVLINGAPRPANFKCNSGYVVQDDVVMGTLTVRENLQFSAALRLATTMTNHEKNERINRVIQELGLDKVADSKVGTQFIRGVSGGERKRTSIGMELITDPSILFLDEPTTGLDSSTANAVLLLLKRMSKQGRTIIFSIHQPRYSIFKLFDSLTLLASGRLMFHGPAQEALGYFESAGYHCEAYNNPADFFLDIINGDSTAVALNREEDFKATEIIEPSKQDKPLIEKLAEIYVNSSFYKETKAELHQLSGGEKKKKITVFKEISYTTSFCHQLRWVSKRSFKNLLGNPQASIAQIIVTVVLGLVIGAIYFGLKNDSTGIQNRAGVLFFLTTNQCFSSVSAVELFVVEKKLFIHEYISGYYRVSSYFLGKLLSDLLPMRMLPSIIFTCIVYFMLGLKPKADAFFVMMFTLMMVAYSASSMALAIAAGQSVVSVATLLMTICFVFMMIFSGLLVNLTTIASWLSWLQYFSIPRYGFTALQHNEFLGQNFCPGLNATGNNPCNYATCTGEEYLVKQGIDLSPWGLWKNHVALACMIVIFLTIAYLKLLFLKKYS
Experiment description: inhibitory effect on human BCRP, bidirectional transport of [^3H]prazosin
Measure name: IC50
Number first, unit second.

So what's the measured IC50 for this one? C=CC(=O)N1C[C@H](n2c(C#CC3CC3)c(C(=O)N[C@H](C)c3ccccc3)c3c(N)ncnc32)C[C@@H]1C [Compound (1)]
332 nM

----------
Experiment description: pharmacokinetics after single oral administration
Format: in vivo, male nude mice
Recorded conditions: male, nude, mouse; single oral 25 mg/kg, plasma; read-out: AUC0-24
Measure name: AUC(0-t) (ng·h/mL)
# output: bare number, implied unit ng·h/mL

So what's the measured AUC(0-t) for this one? "C=CC(=O)N1C[C@H](n2c(C#CC3CC3)c(C(=O)N[C@H](C)c3ccccc3)c3c(N)ncnc32)C[C@@H]1C"
5230

----------
Test system: P-gp
Construct: expressed in transfected cells; host or cells: LLC-PK1 (porcine kidney) cells expressing human P-gp; mock/LLC-PK1 as control
Experiment description: substrate susceptibility on human P-gp, bidirectional transcellular transport, P-gp/LLC-PK1 cells
Format: in vitro ADME
Recorded conditions: human, LLC-PK1, with zosuquidar 10 μmol/L; 10 μmol/L Compound (1) with 10 μmol/L zosuquidar, 4 hours; read-out: net flux ratio
Measure name: efflux ratio at 4 h, 10 μmol/L

So what's the measured efflux ratio at 4 h, 10 μmol/L for this one? "C=CC(=O)N1C[C@H](n2c(C#CC3CC3)c(C(=O)N[C@H](C)c3ccccc3)c3c(N)ncnc32)C[C@@H]1C"
1.1

----------
Experiment description: plasma protein binding, equilibrium dialysis
Format: in vitro ADME
Recorded conditions: human, humans, 0.2, 2, and 20 μmol/L
Protocol: Plasma protein binding of Compound (1). Plasma protein binding of Compound (1) in mice, rats, dogs, monkeys, and humans was determined using the equilibrium dialysis method.
Measure name: fraction unbound

So what's the measured fraction unbound for this one? C=CC(=O)N1C[C@H](n2c(C#CC3CC3)c(C(=O)N[C@H](C)c3ccccc3)c3c(N)ncnc32)C[C@@H]1C [Compound (1)]
0.004 to 0.006

----------
System: human BCRP
Construct: expressed in transfected cells; host or cells: MDCK II (canine kidney) cells expressing human BCRP; parent MDCK II as control
Experiment description: substrate susceptibility on human BCRP, bidirectional transcellular transport, BCRP/MDCK II cells
Assay type: in vitro ADME
Recorded conditions: human, with Ko143 10 μmol/L; read-out: net flux ratio
Measure name: efflux ratio at 2 h, 0.5 μmol/L
Lab note: record just the number, no unit beside it.

So what's the measured efflux ratio at 2 h, 0.5 μmol/L for this one? "C=CC(=O)N1C[C@H](n2c(C#CC3CC3)c(C(=O)N[C@H](C)c3ccccc3)c3c(N)ncnc32)C[C@@H]1C"
1.2

----------
Test system: human P-gp (Homo sapiens, UniProt P08183)
Construct: expressed in transfected cells; host or cells: LLC-PK1 (porcine kidney) cells expressing human P-gp; mock/LLC-PK1 as control
Sequence (P08183 whole entry): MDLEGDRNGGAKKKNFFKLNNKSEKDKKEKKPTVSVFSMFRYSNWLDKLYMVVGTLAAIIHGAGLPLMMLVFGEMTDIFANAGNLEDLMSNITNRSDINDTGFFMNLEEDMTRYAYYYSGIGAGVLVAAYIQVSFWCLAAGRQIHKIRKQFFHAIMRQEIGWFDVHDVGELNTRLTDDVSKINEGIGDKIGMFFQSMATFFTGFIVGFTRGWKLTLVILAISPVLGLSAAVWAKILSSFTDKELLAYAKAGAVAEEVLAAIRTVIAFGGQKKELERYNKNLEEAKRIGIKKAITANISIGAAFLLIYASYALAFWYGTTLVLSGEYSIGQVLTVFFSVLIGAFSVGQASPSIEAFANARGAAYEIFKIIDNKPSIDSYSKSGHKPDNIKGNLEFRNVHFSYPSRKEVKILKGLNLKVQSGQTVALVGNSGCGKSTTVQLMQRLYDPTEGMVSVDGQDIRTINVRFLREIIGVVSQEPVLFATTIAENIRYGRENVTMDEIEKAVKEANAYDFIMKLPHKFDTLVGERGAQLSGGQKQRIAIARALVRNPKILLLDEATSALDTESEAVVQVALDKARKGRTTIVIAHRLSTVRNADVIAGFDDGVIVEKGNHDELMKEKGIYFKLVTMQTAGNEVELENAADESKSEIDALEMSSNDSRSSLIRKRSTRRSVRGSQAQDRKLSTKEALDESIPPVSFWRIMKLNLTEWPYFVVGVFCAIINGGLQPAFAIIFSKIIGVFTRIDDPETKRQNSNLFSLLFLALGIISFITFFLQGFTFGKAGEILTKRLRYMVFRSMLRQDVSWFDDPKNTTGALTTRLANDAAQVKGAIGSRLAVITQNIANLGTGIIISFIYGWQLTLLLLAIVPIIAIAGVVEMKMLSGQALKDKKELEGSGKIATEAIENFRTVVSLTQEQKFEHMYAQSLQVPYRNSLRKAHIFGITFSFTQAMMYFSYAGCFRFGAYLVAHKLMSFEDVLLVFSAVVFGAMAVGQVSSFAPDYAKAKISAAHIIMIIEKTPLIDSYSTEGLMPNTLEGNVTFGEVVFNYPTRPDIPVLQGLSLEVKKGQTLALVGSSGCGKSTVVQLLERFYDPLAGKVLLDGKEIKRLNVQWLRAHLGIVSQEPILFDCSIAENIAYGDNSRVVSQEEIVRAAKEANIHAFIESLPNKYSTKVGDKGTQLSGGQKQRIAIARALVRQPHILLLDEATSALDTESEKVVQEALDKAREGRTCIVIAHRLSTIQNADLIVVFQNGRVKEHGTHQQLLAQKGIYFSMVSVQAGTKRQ
Experiment description: inhibitory effect on human P-gp, bidirectional transport of [^3H]digoxin
Type: in vitro ADME
Recorded conditions: human
Measure name: activity at 3 h, 10 μmol/L (%)
# output: bare number, implied unit %

So what's the measured activity at 3 h, 10 μmol/L for this one? "C=CC(=O)N1C[C@H](n2c(C#CC3CC3)c(C(=O)N[C@H](C)c3ccccc3)c3c(N)ncnc32)C[C@@H]1C"
7

----------
Test system: HER2 (Homo sapiens, UniProt P04626)
Sequence (P04626 23-1255): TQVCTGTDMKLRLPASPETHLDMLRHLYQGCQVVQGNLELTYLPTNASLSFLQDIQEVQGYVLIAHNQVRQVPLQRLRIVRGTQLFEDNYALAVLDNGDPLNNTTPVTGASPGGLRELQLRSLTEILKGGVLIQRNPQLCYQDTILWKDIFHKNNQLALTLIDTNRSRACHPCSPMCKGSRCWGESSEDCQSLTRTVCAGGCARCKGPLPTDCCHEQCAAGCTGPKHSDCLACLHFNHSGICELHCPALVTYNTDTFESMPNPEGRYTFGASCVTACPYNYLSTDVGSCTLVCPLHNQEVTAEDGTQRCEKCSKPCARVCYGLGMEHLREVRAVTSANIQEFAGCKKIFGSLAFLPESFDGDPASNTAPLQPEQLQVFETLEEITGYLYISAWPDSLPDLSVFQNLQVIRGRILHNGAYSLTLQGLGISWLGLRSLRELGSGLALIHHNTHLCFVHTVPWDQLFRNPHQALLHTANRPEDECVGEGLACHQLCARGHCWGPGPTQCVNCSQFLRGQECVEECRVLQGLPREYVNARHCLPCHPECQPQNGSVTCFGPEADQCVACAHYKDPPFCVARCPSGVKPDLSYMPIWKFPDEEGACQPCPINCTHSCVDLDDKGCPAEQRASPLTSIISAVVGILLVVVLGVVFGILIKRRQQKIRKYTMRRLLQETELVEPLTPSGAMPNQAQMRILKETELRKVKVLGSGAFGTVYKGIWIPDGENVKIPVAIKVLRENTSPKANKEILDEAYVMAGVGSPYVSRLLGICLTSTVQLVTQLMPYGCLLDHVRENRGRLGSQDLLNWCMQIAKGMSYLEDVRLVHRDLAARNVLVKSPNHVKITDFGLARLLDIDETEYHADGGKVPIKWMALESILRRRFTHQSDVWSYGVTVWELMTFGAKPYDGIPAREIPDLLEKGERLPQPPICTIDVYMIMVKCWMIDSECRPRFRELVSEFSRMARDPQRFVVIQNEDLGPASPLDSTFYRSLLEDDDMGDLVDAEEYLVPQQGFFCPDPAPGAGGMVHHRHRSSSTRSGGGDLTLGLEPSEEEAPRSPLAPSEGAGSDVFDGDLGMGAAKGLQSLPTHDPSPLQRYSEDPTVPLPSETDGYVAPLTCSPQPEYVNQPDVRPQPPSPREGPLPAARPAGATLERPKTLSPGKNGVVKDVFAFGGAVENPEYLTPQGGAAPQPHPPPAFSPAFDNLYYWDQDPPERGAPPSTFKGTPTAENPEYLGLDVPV
Experiment description: in vitro kinase assay (enzyme assay)
Recorded conditions: human recombinant enzyme; read-out: IC50 (Mean ± SD)
Measure name: IC50 (nM)
# output: bare number, implied unit nM

So what's the measured IC50 for this one? C=CC(=O)N1C[C@H](n2c(C#CC3CC3)c(C(=O)N[C@H](C)c3ccccc3)c3c(N)ncnc32)C[C@@H]1C [Compound (1)]
5.6

----------
Test system: human P-gp (Homo sapiens, UniProt P08183)
Construct: expressed in transfected cells; host or cells: LLC-PK1 (porcine kidney) cells expressing human P-gp; mock/LLC-PK1 as control
Experiment description: inhibitory effect on human P-gp, bidirectional transport of [^3H]digoxin
Format: in vitro ADME
Recorded conditions: human
Measure name: activity at 3 h, 5 μmol/L (%)
# output: bare number, implied unit %

So what's the measured activity at 3 h, 5 μmol/L for this one? C=CC(=O)N1C[C@H](n2c(C#CC3CC3)c(C(=O)N[C@H](C)c3ccccc3)c3c(N)ncnc32)C[C@@H]1C [Compound (1)]
45

----------
Test system: human P-gp (Homo sapiens)
Construct: expressed in transfected cells; host or cells: LLC-PK1 (porcine kidney) cells expressing human P-gp; mock/LLC-PK1 as control
Experiment description: inhibitory effect on human P-gp, bidirectional transport of [^3H]digoxin
Type: in vitro ADME
Recorded conditions: human
From the text: Inhibitory effect of Compound (1) on human P-gp. […] The net flux ratios at the Compound (1) concentrations of 0.01, 0.1, 1, 5, 10, and 100 μmol/L were 5.6±1.0, 5.5±0.7, 6.5±0.5, 2.8±0.5, 1.3±0.2, and 1.0±0.1, respectively. The percent of controls at the Compound (1) concentrations at 0.01, 0.1, 1, 5, 10, and 100 μmol/L were 112%, 110%, 135%, 45%, 7%, and 1%, respectively.
Measure name: activity at 3 h, 0.1 μmol/L
Number first, unit second.

So what's the measured activity at 3 h, 0.1 μmol/L for this one? C=CC(=O)N1C[C@H](n2c(C#CC3CC3)c(C(=O)N[C@H](C)c3ccccc3)c3c(N)ncnc32)C[C@@H]1C [Compound (1)]
110%

----------
Experiment description: plasma protein binding, equilibrium dialysis
Format: in vitro ADME
Recorded conditions: rat, rats, 0.2, 2, and 20 μmol/L
Measure name: fraction unbound

So what's the measured fraction unbound for this one? "C=CC(=O)N1C[C@H](n2c(C#CC3CC3)c(C(=O)N[C@H](C)c3ccccc3)c3c(N)ncnc32)C[C@@H]1C"
0.011 to 0.027

----------
Experiment description: plasma protein binding, equilibrium dialysis
Format: in vitro ADME
Recorded conditions: mouse, mice, 0.2, 2, and 20 μmol/L
Measure name: fraction unbound

So what's the measured fraction unbound for this one? "C=CC(=O)N1C[C@H](n2c(C#CC3CC3)c(C(=O)N[C@H](C)c3ccccc3)c3c(N)ncnc32)C[C@@H]1C"
0.005 to 0.012

----------
Tested on: human BCRP
Construct: expressed in transfected cells; host or cells: MDCK II (canine kidney) cells expressing human BCRP; parent MDCK II as control
Experiment description: substrate susceptibility on human BCRP, bidirectional transcellular transport, BCRP/MDCK II cells
Type: in vitro ADME
Recorded conditions: human; 0.3 μmol/L Compound (1), 3 and 4 hours; read-out: flux ratios in parent and human BCRP/MDCK II cells
Measure name: efflux ratio at 0.3 μmol/L

So what's the measured efflux ratio at 0.3 μmol/L for this one? C=CC(=O)N1C[C@H](n2c(C#CC3CC3)c(C(=O)N[C@H](C)c3ccccc3)c3c(N)ncnc32)C[C@@H]1C [Compound (1)]
> 2
